Recorded conditions: in n-butanol, 288.15 K
Measured endpoint: solubility (mole fraction)
The reply should be a number, written without any unit.

Reported solubility (mole fraction) ( `NC(=O)C[C@H](NC(=O)OCc1ccccc1)C(=O)O` ) = 0.000293

----------
Recorded conditions: in n-pentanol, 308.15 K
Measured endpoint: solubility (mole fraction)
The reply should be a number, written without any unit.

Reported solubility (mole fraction) ( `NC(=O)C[C@H](NC(=O)OCc1ccccc1)C(=O)O` ) = 0.000535

----------
Recorded conditions: in isopropanol, 313.15 K
Measured endpoint: solubility (mole fraction)
The reply should be a number, written without any unit.

Reported solubility (mole fraction) ( `NC(=O)C[C@H](NC(=O)OCc1ccccc1)C(=O)O` ) = 0.00127
